Biological target: human OT7T175 (metastin receptor) (human, UniProt Q969F8 1-398)
Sequence (Q969F8 whole entry L364H): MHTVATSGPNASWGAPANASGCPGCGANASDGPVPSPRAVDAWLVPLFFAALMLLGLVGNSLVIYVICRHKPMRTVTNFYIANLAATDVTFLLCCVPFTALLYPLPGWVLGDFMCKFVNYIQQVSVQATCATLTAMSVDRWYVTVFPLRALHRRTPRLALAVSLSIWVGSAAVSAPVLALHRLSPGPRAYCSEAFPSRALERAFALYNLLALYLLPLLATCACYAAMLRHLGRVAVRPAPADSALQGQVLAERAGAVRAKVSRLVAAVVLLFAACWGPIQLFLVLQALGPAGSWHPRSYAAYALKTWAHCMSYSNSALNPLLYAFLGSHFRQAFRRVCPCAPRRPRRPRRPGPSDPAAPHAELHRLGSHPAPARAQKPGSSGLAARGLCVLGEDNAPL
Assay: cell-based or functional assay
Non-standard residues stand in square brackets, D forms with d. No end group written: not given here. *: point of attachment. Propanoyl(3-(3-pyridyl)) = O=C(CCc1cccnc1)*; Arg(Me) = CNC(=N)NCCC[C@H](N)C(=O)O; azaGly = NNC(=O)O
measurementLabel: Ca ion level-increasing activity (FLIPR, 40 s)

In the examples that follow, each entry is paired with its recorded Ca ion level-increasing activity (FLIPR, 40 s).
binder	measurement
{Propanoyl(3-(3-pyridyl))}-NSF[azaGly]L[Arg(Me)]F-NH2 (SMILES CNC(=N)NCCC[C@H](NC(=O)[C@H](CC(C)C)NC(=O)NNC(=O)[C@H](Cc1ccccc1)NC(=O)[C@H](CO)NC(=O)[C@H](CC(N)=O)NC(=O)CCc1cccnc1)C(=O)N[C@@H](Cc1ccccc1)C(N)=O, also called Compound No. 322) [des(1-3)-3-(3-Pyridyl)propionyl-[AzaGly7,Arg(Me)9]MS10]	5.4 EC50/MS10 EC50
[dY]NWNAFGL[Arg(Me)]F-NH2 (N-terminus assumed; SMILES CNC(=N)NCCC[C@H](NC(=O)[C@H](CC(C)C)NC(=O)CNC(=O)[C@H](Cc1ccccc1)NC(=O)[C@H](C)NC(=O)[C@H](CC(N)=O)NC(=O)[C@H](Cc1c[nH]c2ccccc12)NC(=O)[C@H](CC(N)=O)NC(=O)[C@H](N)Cc1ccc(O)cc1)C(=O)N[C@@H](Cc1ccccc1)C(N)=O) [[D-Tyr1,Ala5,Arg(Me)9]MS10]	1.1 EC50/MS10 EC50

Now for a further binder.
Data request: Item [dY]NWNSFGL[Arg(Me)]F-NH2 [[D-Tyr1,Arg(Me)9]MS10] has what recorded Ca ion level-increasing activity (FLIPR, 40 s)?
Data returned: 1.6 EC50/MS10 EC50

The origin of these recorded values is patent US20090298765A1.
